- experimentalTarget: Ba/F3 Pro B-cell line expressing TEL-human MERTK fusion domain (Homo sapiens, UniProt Q12866)
- Sequence (Q12866 587-858 limits assumed): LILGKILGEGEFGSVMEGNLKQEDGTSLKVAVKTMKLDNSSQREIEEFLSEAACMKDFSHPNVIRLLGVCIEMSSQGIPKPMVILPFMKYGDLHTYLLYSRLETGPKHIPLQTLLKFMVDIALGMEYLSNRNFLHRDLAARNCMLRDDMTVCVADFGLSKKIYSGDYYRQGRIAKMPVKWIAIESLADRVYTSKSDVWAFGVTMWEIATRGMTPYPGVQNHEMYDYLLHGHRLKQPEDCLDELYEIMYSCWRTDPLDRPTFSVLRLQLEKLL
- Type: cell-based
- particulars: cell survival, 48 h, CellTiter-Glo; read-out: TEL-MERTK Ba/F3 IC50
pIC50: −log10 of the molar value.
Collected pIC50 values appear next to each entry.

smilesRecord | pIC50
CC(C)n1cc(C(=O)Nc2ccc(Oc3ccnc4cnc(N5CCNCC5)cc34)cc2)c(=O)n(-c2ccc(F)cc2)c1=O | 7.42
CN1CCN(c2cc3c(Oc4ccc(NC(=O)c5cccn(-c6ccc(F)cc6)c5=O)nc4)ccnc3cn2)CC1 | 7.80
CC(C)(C)OC(=O)N1CCC(c2cc3c(Oc4ccc(NC(=O)c5cccn(-c6ccc(F)cc6)c5=O)nc4)ccnc3cn2)CC1 | 6.71
CC(C)n1cc(C(=O)Nc2ccc(Oc3ccnc4cnc(N5CCNCC5)cc34)cc2)c(=O)n(-c2ccccn2)c1=O | 6.37
CN1CCC(C(=O)Nc2cc3c(Oc4ccc(NC(=O)c5cccn(-c6ccc(F)cc6)c5=O)nc4)ccnc3cn2)CC1 | 7.89
CN1CCC(NC(=O)c2cc3c(Oc4ccc(NC(=O)c5cccn(-c6ccccc6)c5=O)cc4F)ccnc3cn2)CC1 | 7.24
O=C(Nc1ccc(Oc2ccnc3cnc(N4CCNCC4)cc23)cc1)c1cccc(-c2ccc(F)cc2)[n+]1[O-] | 7.80

---

- experimentalTarget: Ba/F3 Pro B-cell line expressing BCR-human AXL kinase domain fusion protein (Homo sapiens)
- Construct: P11274 (Breakpoint cluster region protein)
- Sequence (P30530 536-807 limits assumed): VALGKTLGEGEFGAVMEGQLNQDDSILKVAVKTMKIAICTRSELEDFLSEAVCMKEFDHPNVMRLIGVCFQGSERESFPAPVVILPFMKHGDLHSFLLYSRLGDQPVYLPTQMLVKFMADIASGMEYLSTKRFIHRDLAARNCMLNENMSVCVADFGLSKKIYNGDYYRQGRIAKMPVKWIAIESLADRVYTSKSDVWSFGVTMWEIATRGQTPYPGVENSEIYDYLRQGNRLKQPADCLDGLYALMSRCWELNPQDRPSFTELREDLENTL
- protocolSummary: Assay 5 Ba/F3 cell survival assay, BCR-Axl
- Type: cell-based
- particulars: read-out: BCR-Axl Ba/F3 IC50, 48 h, CellTiter-Glo
Mark t only when IC50 stays strictly below 40 nM. Values equal to the cut-off are f.

smilesRecord | class
CN1CCC(NC(=O)c2cc3c(Nc4ccc(NC(=O)c5cccn(-c6ccccc6)c5=O)cc4)ccnc3cn2)CC1 | f
CC(C)n1cc(C(=O)Nc2ccc(Oc3ccnc4cnc(N5CCNCC5)cc34)cc2)c(=O)n(-c2ccccn2)c1=O | f
CC(C)C(=O)N1CCC(c2cc3c(Oc4ccc(NC(=O)c5cccn(-c6ccc(F)cc6)c5=O)nc4)ccnc3cn2)CC1 | t
O=C(Nc1ccc(Oc2ccnc3cnc(N4CCNCC4)cc23)cn1)c1cccn(-c2ccc(F)cc2)c1=O | t
CN1CCN(c2cc3c(Oc4ccc(NC(=O)c5cccn(-c6ccc(F)cc6)c5=O)cc4)ccnc3cn2)CC1 | t

---

- experimentalTarget: human MERTK cytoplasmic domain (Homo sapiens, UniProt Q12866)
- Construct: human MERTK cytoplasmic domain (Carna Biosciences 08-108); purchased Carna Biosciences 08-108
- protocolSummary: biochemical
- particulars: 30 uM ATP; read-out: Assay 1a Mer IC50 30 uM ATP

smilesRecord | IC50, nM
O=C(N[C@H]1CC[C@H](O)CC1)c1cc2c(Nc3ccc(NC(=O)c4cccn(-c5ccccc5)c4=O)cc3)ccnc2cn1 | 60
O=C(Nc1ccc(Oc2ccnc3cnc(N4CCNCC4)cc23)cn1)c1cccn(-c2ccccc2)c1=O | 17
CC(C)n1cc(C(=O)Nc2ccc(Oc3ccnc4cnc(N5CCNCC5)cc34)cc2)c(=O)n(-c2ccccn2)c1=O | 56
CC(C)n1cc(C(=O)Nc2ccc(Nc3ccnc4cnc(N5CCNCC5)cc34)cc2)c(=O)n(-c2ccc(F)cc2)c1=O | 75
Cc1c(C(=O)Nc2ccc(Oc3ccnc4cnc(C(=O)NC5CCN(C)CC5)cc34)cc2)c(=O)n(-c2ccccc2)n1CC(C)(C)O | 245
CC(C)n1cc(C(=O)Nc2ccc(Nc3ccnc4cnc(C(=O)NOCCO)cc34)cc2)c(=O)n(-c2ccc(F)cc2)c1=O | 392
Cc1c(C(=O)Nc2ccc(Oc3ccnc4cnc(N5CCNCC5)cc34)cc2)c(=O)n(-c2ccccc2)n1C | 134
CC(C)n1cc(C(=O)Nc2ccc(Oc3ccnc4cnc(C(=O)N[C@H]5CCN(C)C5)cc34)cn2)c(=O)n(-c2ccc(F)cc2)c1=O | 14
CC(C)n1cc(C(=O)Nc2ccc(Oc3ccnc4cnc(C(=O)NC5CCN(C)CC5)cc34)cc2)c(=O)n(-c2ccc(F)cc2)c1=O | 10
CN1CCC(c2cc3c(Oc4ccc(NC(=O)c5cccn(-c6ccc(F)cc6)c5=O)nc4)ccnc3cn2)CC1 | 19
O=C(Nc1ccc(Oc2ccnc3cnc(N4CCN(C5COC5)CC4)cc23)cn1)c1ccnn(-c2ccc(F)cc2)c1=O | 3
O=C(Nc1ccc(Nc2ccnc3cnc(N4CCCNCC4)cc23)cc1)c1cccn(-c2ccccc2)c1=O | 54
O=C(Nc1ccc(Oc2ccnc3cnc(N4CCNCC4)cc23)cc1)c1cccn(-c2ccc(F)cc2)c1=O | 20
O=C(Nc1ccc(Nc2ccnc3cnc(N4CCOCC4)cc23)cc1)c1cccn(-c2ccccc2)c1=O | 196
O=C(Nc1ccc(Oc2ccnc3cnc(C4CCN(C5COC5)CC4)cc23)cn1)c1cccn(-c2ccc(F)cc2)c1=O | 1
O=C(Nc1ccc(Oc2ccnc3cnc(N4CCNCC4)cc23)cc1)c1cn(C2CC2)c(=O)n(-c2ccc(F)cc2)c1=O | 20
CC(C)n1cc(C(=O)Nc2ccc(Oc3ccnc4cnc(C(=O)NC5CCN(C)CC5)cc34)cc2)c(=O)n(-c2cc(F)cc(F)c2)c1=O | 12
CC(C)n1cc(C(=O)Nc2ccc(Oc3ccnc4cnc(C(=O)NC5CCN(C)CC5)cc34)cn2)c(=O)n(-c2ccc(F)cc2)c1=O | 15
CN1CCC(NC(=O)c2cc3c(Oc4ccc(NC(=O)c5cccn(-c6ccccc6)c5=O)cc4)ccnc3cn2)CC1 | 52
Cc1cc(NC(=O)c2cccn(-c3ccccc3)c2=O)ccc1Oc1ccnc2cnc(C(=O)NC3CCN(C)CC3)cc12 | 43
CN1CCC(NC(=O)c2cc3c(Oc4ccc(NC(=O)c5cccn(-c6ccc(F)cc6)c5=O)cc4)ccnc3cn2)CC1 | 4
O=C(Nc1ccc(Oc2ccnc3cnc(N4CCNCC4)cc23)cc1)c1cccn(-c2ccccn2)c1=O | 722
CN1CCC(NC(=O)c2cc3c(Nc4ccc(NC(=O)c5cccn(-c6ccccc6)c5=O)cc4)ccnc3cn2)CC1 | 55
O=C(Nc1ccc(Nc2ccnc3cnc(N4CCC(O)CC4)cc23)cc1)c1cccn(-c2ccccc2)c1=O | 59
O=C(Nc1ccc(Oc2ccnc3cnc(N4CCNCC4)cc23)cc1)c1c[nH]cc(-c2ccc(F)cc2)c1=O | 16
C[C@H](CO)n1cc(C(=O)Nc2ccc(Oc3ccnc4cnc(C(=O)NC5CCN(C)CC5)cc34)cc2)c(=O)n(-c2ccc(F)cc2)c1=O | 14
CN1CCC(NC(=O)c2cc3c(Oc4ccc(NC(=O)c5cn(C)cc(-c6ccc(F)cc6)c5=O)cc4)ccnc3cn2)CC1 | 3

---

- experimentalTarget: Ba/F3 Pro B-cell line expressing TEL-human Tyro3 fusion domain (Homo sapiens)
- Sequence (Q06418 518-790 limits assumed): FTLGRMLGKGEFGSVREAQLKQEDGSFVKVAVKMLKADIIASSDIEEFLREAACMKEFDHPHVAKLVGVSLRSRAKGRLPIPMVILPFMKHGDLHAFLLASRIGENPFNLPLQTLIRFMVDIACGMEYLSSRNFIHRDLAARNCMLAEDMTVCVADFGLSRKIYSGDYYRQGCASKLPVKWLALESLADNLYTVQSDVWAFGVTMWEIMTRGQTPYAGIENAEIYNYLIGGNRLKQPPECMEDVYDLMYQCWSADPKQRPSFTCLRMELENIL
- particulars: cell survival, 48 h, CellTiter-Glo

smilesRecord | valueModifier | IC50, nM
CN1CCC(NC(=O)c2cc3c(Nc4ccc(NC(=O)c5cccn(-c6ccccc6)c5=O)cc4)ccnc3cn2)CC1 | = | 956
Cc1cc(NC(=O)c2cccn(-c3ccc(F)cc3)c2=O)ncc1Oc1ccnc2cnc(C(=O)NC3CCN(C)CC3)cc12 | = | 91
O=C(Nc1ccc(Oc2ccnc3cnc(C4CCNCC4)cc23)cn1)c1cccn(-c2ccc(F)cc2)c1=O | = | 861
CC(C)n1cc(C(=O)Nc2ccc(Oc3ccnc4cnc(C5CCN(C)CC5)cc34)cn2)c(=O)n(-c2ccc(F)cc2)c1=O | = | 568
CC(C)n1cc(C(=O)Nc2ccc(Oc3ccnc4cnc(N5CCNCC5)cc34)cc2)c(=O)c(-c2ccc(F)cc2)c1 | = | 212
CC(C)C(=O)N1CCC(c2cc3c(Oc4ccc(NC(=O)c5cccn(-c6ccc(F)cc6)c5=O)nc4)ccnc3cn2)CC1 | > | 2500
O=C(Nc1ccc(Oc2ccnc3cnc(N4CCNCC4)cc23)cc1)c1cccn(-c2ccc(F)cc2)c1=O | = | 238
